Reference source: ChEMBL document CHEMBL2346657

Tested on: Pseudomonas aeruginosa
ASSAY_OVERVIEW: Antimicrobial activity against Pseudomonas aeruginosa MTCC 1688 at 750 ug/ml after 24 hrs by cup plate method
Type: functional
CONDITIONS: MTCC 1688, 24 h, read-out: IZ
MEASURE_NAME: zone of inhibition at 750 µg/mL

- Nc1nc(=S)[nH]c2c1C(c1c(-c3ccccc3)[nH]c3ccc(Cl)cc13)C=C(c1ccccc1)O2 (centres undefined): 5 mm
- Cc1ccc(C2=CC(c3c(-c4ccccc4)[nH]c4ccccc34)c3c(N)n[nH]c3O2)cc1 (centres undefined): 6 mm
- N#CC1=C(N)OC(c2ccccc2)=CC1c1c(-c2ccccc2)[nH]c2ccc(Cl)cc12 (centres undefined): 12 mm
- Cc1ccc(C2=CC(c3c(-c4ccccc4)[nH]c4ccccc34)C(C#N)=C(N)O2)cc1 (centres undefined): 8 mm
- Cc1ccc2[nH]c(-c3ccccc3)c(C3C=C(c4ccc(Cl)cc4)Oc4nc[nH]c(=O)c43)c2c1 (centres undefined): 4 mm
- N#CC1=C(N)OC(c2ccccc2)=CC1c1c(-c2ccccc2)[nH]c2ccccc12 (centres undefined): 9 mm
- Cc1ccc2[nH]c(-c3ccccc3)c(C3C=C(c4ccccc4)Oc4[nH]nc(N)c43)c2c1 (centres undefined): 8 mm
- O=c1[nH]cnc2c1C(c1c(-c3ccccc3)[nH]c3ccc(Cl)cc13)C=C(c1ccccc1)O2 (centres undefined): 3 mm
- O=c1[nH]cnc2c1C(c1c(-c3ccccc3)[nH]c3ccc(Cl)cc13)C=C(c1ccc(Cl)cc1)O2 (centres undefined): 8 mm
